So I've got pIC50 readings for PIK3CA (human) (UniProt P42336), take a look.
Answers are plain numbers, as −log10 of the molar value.

>>> reported("Cc1nc(C(=O)Nc2cc(-c3cc(F)cc4[nH]ccc34)cc3[nH]ncc23)cs1")
4.90
>>> reported("COc1ncc(-c2cc(NC(=O)c3csc(CN4C[C@@H](C)O[C@@H](C)C4)n3)c3cn[nH]c3c2)cc1NS(C)(=O)=O")
6.40
>>> reported("Cc1nc(C(=O)Nc2cc(-c3cccc(O)c3)cc3[nH]ncc23)cs1")
4.80

Take each entry in turn and give its pIC50.
1. O=C(Nc1cc(-c2cccc3[nH]ccc23)cc2[nH]ncc12)c1csc(CN2CCCCC2)n1
2. CC(C)N1CCN(Cc2nc(C(=O)Nc3cc(-c4cccc5[nH]ccc45)cc4[nH]ncc34)cs2)CC1

1. 4.70
2. 5.90

Reference source: the Kinase Knowledgebase extract (Sharma et al. 2016)
